From: patent US20180171001A1

Measured neutralization IC50 accompanies every entry in the list below.
molecular target: Env of HIV-1 strain 3016.v5.c45 (HIV-1); assay: cell-based or functional assay
Respond numerically; units are µg/mL and should not be typed.

# binder, readout.type, unit.label, test.result
data = [
    ("γ3κ5 (antibody, V domains shown) VH: QIHLVQSGTEVKKPGSSVTVSCKAYGVNTFGLYAVSWVRQAPGQRLEYIGQIRRWKSSASHHFRGRVTVSAVDPTGSSPPISSLEIRDLTTDDTAVYFCTTTSTSDYWSGLHNERGTAFSSWGQGTLISVSA VL: DIQMTQSPSTLSASTGDTVRISCRASQSITGNWVAWYQQRPGKAPRLLIYRGAALLGGVPSRFRGSAAGTDFTLTIGNLQAEDFGTFYCQQYDTYPGTFGQGTKVEVKR", "neutralization IC50", "µg/mL", 0.314),
]

Q) Need neutralization IC50, item γ23κ11 (antibody, V domains shown) VH: QIHLVQSGTEVKKPGSSVTVSCKAYGVNTFGLYAVNWVRQAPGQSLEYIGQIWRWKSSASHHFRGRVIISAVDLTGSSPPISSLEIKNLTSDDTAVYFCTTTSTSDYWSGLHHDGVMAFSSWGQGTLISVSA VL: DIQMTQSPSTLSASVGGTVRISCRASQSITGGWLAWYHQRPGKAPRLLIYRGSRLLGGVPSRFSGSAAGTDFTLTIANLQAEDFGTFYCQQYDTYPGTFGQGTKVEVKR
A) 0.159
